# Peak IIa [nM], Ab 10 nM listing for each entry below
# test-target: Relipidated TF (Tissue Factor) (UniProt P13726 33-295, limits assumed)
# test-details: cell-based or functional assay
Respond with the bare value in nM.

Here's what some known entries look like.
>>> obs_value("5G9 (humanized TF8-5G9, CNTO 860) (antibody, V domains shown) VH: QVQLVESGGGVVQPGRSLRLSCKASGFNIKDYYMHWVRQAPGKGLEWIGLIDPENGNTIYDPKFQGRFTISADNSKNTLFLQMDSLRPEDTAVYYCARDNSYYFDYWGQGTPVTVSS VL: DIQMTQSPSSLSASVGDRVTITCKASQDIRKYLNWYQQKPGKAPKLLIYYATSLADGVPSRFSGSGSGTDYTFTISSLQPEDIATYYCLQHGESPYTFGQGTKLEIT")
79
>>> obs_value("25A (antibody, human IgG1, V domains shown) VH: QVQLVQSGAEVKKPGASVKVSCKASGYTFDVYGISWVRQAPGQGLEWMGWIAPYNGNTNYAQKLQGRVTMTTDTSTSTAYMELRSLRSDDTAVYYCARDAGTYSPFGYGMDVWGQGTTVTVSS VL: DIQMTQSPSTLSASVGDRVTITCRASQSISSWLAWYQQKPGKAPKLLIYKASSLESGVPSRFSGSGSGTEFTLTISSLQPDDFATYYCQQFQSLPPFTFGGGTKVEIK")
322
>>> obs_value("39A (antibody, human IgG1, V domains shown) VH: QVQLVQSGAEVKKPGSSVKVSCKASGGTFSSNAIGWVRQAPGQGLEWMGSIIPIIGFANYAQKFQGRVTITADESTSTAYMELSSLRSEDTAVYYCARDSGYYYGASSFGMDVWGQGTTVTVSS VL: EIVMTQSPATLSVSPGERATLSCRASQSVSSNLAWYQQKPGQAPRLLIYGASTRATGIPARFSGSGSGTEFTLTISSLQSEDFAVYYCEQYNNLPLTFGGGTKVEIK")
122

Attention now turns to another entry.
Record TF-011 (antibody, V domains shown) VH: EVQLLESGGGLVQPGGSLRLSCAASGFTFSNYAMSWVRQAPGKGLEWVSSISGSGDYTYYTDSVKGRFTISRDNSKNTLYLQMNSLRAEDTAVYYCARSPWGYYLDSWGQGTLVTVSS VL: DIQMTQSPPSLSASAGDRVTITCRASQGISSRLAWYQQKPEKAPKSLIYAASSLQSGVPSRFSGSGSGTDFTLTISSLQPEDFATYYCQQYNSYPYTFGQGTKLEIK . Reported Peak IIa [nM], Ab 10 nM: 156

Hey, just so you know, these numbers are from patent US20240166765A1.
